assay procedure: Initial rate of decomposition (1 mM) in 1 mM potassium phosphate buffer
Format: ADME
condition summary: 1000 µM
property name: Rate of decomposition

Example entries begin here.
{"chemical structure": "CS(=O)(=O)N(CCCl)N(S(C)(=O)=O)S(C)(=O)=O", "Rate of decomposition": "9.58 (nM of drug) min-1 ml-1"}
{"chemical structure": "COCC(=O)N(N(CCCl)S(C)(=O)=O)S(C)(=O)=O", "Rate of decomposition": "2.9 (nM of drug) min-1 ml-1"}
{"chemical structure": "CC(=O)N(N(CCCl)S(C)(=O)=O)S(C)(=O)=O", "Rate of decomposition": "0.24 (nM of drug) min-1 ml-1"}

// next entry
Recorded Rate of decomposition of CS(=O)(=O)N(CCCl)N(C(=O)c1ccccc1)S(C)(=O)=O , please.
1.02 (nM of drug) min-1 ml-1

----------
assay procedure: Rate of decomposition in presence of 10 mM glutathione (GSH)
Type: ADME
property name: Rate of decomposition

Sample answers from the record:
{"chemical structure": "CC(C)(C)C(=O)N(N(CCCl)S(C)(=O)=O)S(C)(=O)=O", "measurement": "11 (nM of drug) min-1 ml-1"}
{"chemical structure": "CS(=O)(=O)N(CCCl)N(C(=O)c1ccccc1)S(C)(=O)=O", "measurement": "227 (nM of drug) min-1 ml-1"}
{"chemical structure": "COCC(=O)N(N(CCCl)S(C)(=O)=O)S(C)(=O)=O", "measurement": "147 (nM of drug) min-1 ml-1"}
{"chemical structure": "CCCC(=O)N(N(CCCl)S(C)(=O)=O)S(C)(=O)=O", "measurement": "10.3 (nM of drug) min-1 ml-1"}
{"chemical structure": "CC(=O)N(N(CCCl)S(C)(=O)=O)S(C)(=O)=O", "measurement": "14.5 (nM of drug) min-1 ml-1"}

Next molecule, please.
Need Rate of decomposition, item CCC(=O)N(N(CCCl)S(C)(=O)=O)S(C)(=O)=O
12.8 (nM of drug) min-1 ml-1

----------
assay procedure: Relative rate of decomposition is the rate of decomposition of acyl compound to that of rate of decomposition of compound
Assay type: ADME
property name: Relative rate of decomposition
The answer should be written as a number, with no unit following it.

{"chemical structure": "CS(=O)(=O)N(CCCl)N(S(C)(=O)=O)S(C)(=O)=O", "Relative rate of decomposition": 1}
{"chemical structure": "CS(=O)(=O)N(CCCl)N(C(=O)c1ccccc1)S(C)(=O)=O", "Relative rate of decomposition": 0.11}

Consider the molecule shown here: COCC(=O)N(N(CCCl)S(C)(=O)=O)S(C)(=O)=O What is its recorded Relative rate of decomposition?
0.3

----------
A collection of compounds and their measured Relative rate of decomposition
assay procedure: Relative rate of decomposition is the rate of decomposition in the presence of 2% serum/rate of hydrolysis in buffer alone.
Format: ADME
Enter the number alone.

Below: 2 compounds and their reported Relative rate of decomposition.
{"chemical structure": "COCC(=O)N(N(CCCl)S(C)(=O)=O)S(C)(=O)=O", "Relative rate of decomposition": 3}
{"chemical structure": "CS(=O)(=O)N(CCCl)N(C(=O)c1ccccc1)S(C)(=O)=O", "Relative rate of decomposition": 7.7}

Please examine the following record next.
For CC(=O)N(N(CCCl)S(C)(=O)=O)S(C)(=O)=O , what is its reported Relative rate of decomposition?
3.7

----------
assay procedure: Rate of decomposition in presence of CD-1 mouse serum
Type: ADME
property name: Rate of decomposition

Past entries and their recorded results:
{"chemical structure": "CCCC(=O)N(N(CCCl)S(C)(=O)=O)S(C)(=O)=O", "Rate of decomposition": "0.34 (nM of drug) min-1 ml-1"}
{"chemical structure": "CCC(=O)N(N(CCCl)S(C)(=O)=O)S(C)(=O)=O", "Rate of decomposition": "0.45 (nM of drug) min-1 ml-1"}
{"chemical structure": "CC(C)(C)C(=O)N(N(CCCl)S(C)(=O)=O)S(C)(=O)=O", "Rate of decomposition": "0.78 (nM of drug) min-1 ml-1"}
{"chemical structure": "COCC(=O)N(N(CCCl)S(C)(=O)=O)S(C)(=O)=O", "Rate of decomposition": "8.57 (nM of drug) min-1 ml-1"}
{"chemical structure": "CC(=O)N(N(CCCl)S(C)(=O)=O)S(C)(=O)=O", "Rate of decomposition": "0.89 (nM of drug) min-1 ml-1"}

We next turn to a different compound, shown below.
Need Rate of decomposition, item CS(=O)(=O)N(CCCl)N(C(=O)c1ccccc1)S(C)(=O)=O
7.86 (nM of drug) min-1 ml-1
